# target: Alpha-2C adrenergic receptor (Homo sapiens) (UniProt P18825)
# Sequence (P18825 whole entry, looked up): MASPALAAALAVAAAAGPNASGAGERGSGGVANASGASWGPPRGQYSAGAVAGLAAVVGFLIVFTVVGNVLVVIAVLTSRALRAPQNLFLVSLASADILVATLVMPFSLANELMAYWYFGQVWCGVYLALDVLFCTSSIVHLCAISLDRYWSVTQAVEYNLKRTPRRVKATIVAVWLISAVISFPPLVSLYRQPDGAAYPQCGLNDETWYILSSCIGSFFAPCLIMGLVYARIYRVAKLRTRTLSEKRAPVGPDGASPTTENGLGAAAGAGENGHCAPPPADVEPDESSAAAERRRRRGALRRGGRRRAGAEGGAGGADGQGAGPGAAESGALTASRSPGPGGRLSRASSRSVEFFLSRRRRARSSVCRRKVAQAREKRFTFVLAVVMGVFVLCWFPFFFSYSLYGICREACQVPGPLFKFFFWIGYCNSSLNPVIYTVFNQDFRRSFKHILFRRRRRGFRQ
# experiment.notes: compounds altering alpha2C-coupled GIRK flux – cell-based, HEK293 alpha2C/GIRK1/2, thallium flux, primary screen (AID 624);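 note: slope of fluorescence ratio to pre-addition baseline per second over 15 to 24 s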
# test.conditions: thallium flux BTC fluorescence, at 10 µM, actives lie on both sides
measurement.label: slope
One number for each entry.

compound: C#CCSc1nc(-c2cccs2)ccc1C#N
slope: 0.00646

compound: COc1ccccc1CC(NC(C)=O)C(=O)NC1CCN(c2nnnn2-c2ccccc2)CC1 (stereo not given)
slope: 0.00623

compound: CCOc1ccccc1N(CC(=O)N1CCCCCC1)S(C)(=O)=O
slope: 0.00598

compound: CCOc1ccc(S(=O)(=O)Nc2ccc(Cl)cn2)c(C)c1C
slope: 0.00637

compound: COc1ccc(S(=O)(=O)N(C)CC(=O)N2CCCCC2)cc1Cl
slope: 0.00667

List the reported slope of each compound below.
1. CCC(C)(C)n1nnnc1C(c1ccc(OC)c(OC)c1)N1CCN(c2ccccc2)CC1 (stereo not given)
2. COc1ccc(NC(=O)c2ccco2)cc1NC(=O)c1cccs1
3. CC1CC(C)CN(CC(=O)Nc2ccc(S(N)(=O)=O)cc2)C1 (stereo not given)
4. O=C(C1COc2ccccc2O1)N1CCCC1 (stereo not given)
5. Cc1ccc(S(=O)(=O)N(CC(=O)N2CCC(C(N)=O)CC2)Cc2ccc(F)cc2)cc1
6. CCN(CC)C(=O)Cn1ncc2c1-c1ccccc1OC2
7. COc1ccc(N2CCN(C(=O)CSc3ccccc3)CC2)cc1

1. 0.0062
2. 0.00585
3. 0.00537
4. 0.0093
5. 0.00526
6. 0.00665
7. 0.00515

List the reported slope of each compound below.
1. O=C(C1CCCN1S(=O)(=O)c1cccc2cccnc12)N1CCn2c1nc1ccccc12 (stereo not given)
2. Cn1cnnc1Sc1nc2c(c(=O)n(C)c(=O)n2C)n1Cc1ccccc1Cl
3. N#CCC(=O)Nc1ncn(Cc2ccccc2Cl)n1

0.00657
0.005
0.00405

###

Would you kindly list inhibition for each of these compounds?
# experiment.notes: blockers of RIG-like receptor reporter activation – cell-based, Sendai virus stimulus, luciferase, 10K MLSCN set, TLR/RLR signaling modifier project, primary screen (AID 602276);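 note: firefly luciferase from ISG56 promoter only with Renilla not read in this screen; 0% = Sendai virus plus DMSO and 100% = medium plus DMSO without virus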
# test.conditions: HEK293 RL24 IRF3 luciferase reporter, at 10 µM, stronger effect = higher value
Answers are plain numbers, in %.

compound: Cc1ccc(S(=O)(=O)N(CC(=O)N2CCC(C(N)=O)CC2)Cc2ccc(F)cc2)cc1
output.unit: %
inhibition: 10.4

List the reported inhibition of each compound below.
1. CC1CCCCC1NC(=O)Cn1ncc2ccccc21 (stereo unspecified)
2. Cc1cccc(NC(=O)c2ccc(S(=O)(=O)N(C)C)cc2)n1
3. Cc1ccc(OCC(O)Cn2c(NCCc3ccccc3)nc3c2c(=O)[nH]c(=O)n3C)cc1 (stereo unspecified)
4. CN(CC(=O)Nc1sccc1C#N)C1CCCCC1
5. Cc1c(NC(=O)C(C)OC(=O)C(NC(=O)c2ccco2)C(C)C)c(=O)n(-c2ccccc2)n1C (stereo unspecified)
6. COc1ccc(NC(=O)C23CCC(C)(C(=O)C2)C3(C)C)cc1 (stereo unspecified)

11.9
-11.6
-0.0675
-14.2
10.2
12.6

###

Would you kindly list nuclei count for each of these compounds?
# experiment.notes: endothelial E-selectin expression blockers – imaging, HUVEC, immunofluorescence, MLSMR starter and 10KST1 sets, primary screen (AID 487);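 note: 100% = median nuclei count of all wells on the same plate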
# test.conditions: HUVEC TNFalpha-induced E-selectin immunofluorescence imaging, at 2 µM; measured here: cell number, toxicity
One number for each entry, in %.

compound: O=C(NCC(=O)N(c1cccnc1)C(C(=O)NC1CCCCC1)c1cccnc1)c1ccco1 (configuration not stated)
nuclei count, %: 110

compound: CCCCn1c(CN(C)Cc2ccccc2)nc2c1c(=O)n(C)c(=O)n2C
nuclei count, %: 103

compound: COc1ccccc1C1C(C(C)=O)=C(O)C(=O)N1CCc1ccccc1 (configuration not stated)
nuclei count, %: 103

compound: COc1ccc(CCNC(=O)CSc2nnc(CNc3ccc(Cl)cc3)o2)cc1OC
nuclei count, %: 63.5

compound: CCCCOc1ccc(-c2ncc(C(=O)OCC)c(N)n2)cc1
nuclei count, %: 115

List the reported nuclei count of each compound below.
1. Cc1cc(C(=O)COC(=O)CCc2nc3ccccc3s2)c(C)n1C
2. COCC(=O)N(Cc1ccc(OC)cc1)Cc1nc2ccccc2c(=O)[nH]1
3. COc1cc(C(=O)OCc2cc3ccccc3[nH]c2=O)cc(OC)c1OC
4. COC(=O)c1[nH]c2ccc(C)cc2c1NC(=O)CN1CCC(C)CC1
5. CCC(c1nnc(SCC(=O)Nc2ccc(C(=O)Nc3ccccc3OC)cc2)o1)N(C)C (configuration not stated)
6. Cc1ccccc1-c1nc(CS(=O)(=O)CC(=O)NCc2ccccc2)c(C)o1

[96, 117, 102, 120, 90.3, 106]

Values from PubChem BioAssay
